Property: MIC; scope: individual compounds
# Test system: Escherichia coli ATCC25922 strain
# experimentSummary: Antibacterial activity, MIC by broth microdilution (CLSI)
# Assay type: cell-based
# Method: The minimum inhibitory concentration (MIC) was measured according to the CLSI (Clinical and Laboratory Standards Institute) standard method using a broth microdilution method given below. The bacteria used were a Pseudomonas aeruginosa ATCC27853 strain, an Escherichia coli ATCC25922 strain and a Klebsiella pneumoniae ATCC13883 strain. […]
Unit µg/mL implied. Number only.

Worked set:
{"columns": ["compound", "unitsText", "MIC"],
 "data": [
  ["CNC(=O)[C@@](C)(C(=O)NO)N(C)C(=O)c1ccc(C#Cc2ccc(COC3COC3)cc2)cc1 [Example 11]", "µg/mL", 0.0625],
  ["CCOC[C@@H](O)c1ccc(C#Cc2ccc(C(=O)N(C)[C@@](C)(C(=O)NC)C(=O)NO)cc2)cc1 [Example 29]", "µg/mL", 0.125],
  ["CNC(=O)[C@@](C)(C(=O)NO)N(C)C(=O)c1ccc(C#Cc2ccc([C@@H](O)CCO)cc2)cc1 [Example 32]", "µg/mL", 0.5]
]}

Now, please, on to the next compound.
Query block: Item CNC(=O)[C@@](C)(C(=O)NO)N(C)C(=O)c1ccc(C#Cc2ccc([C@H](O)COCCO)cc2)cc1 [Example 24] with Escherichia coli ATCC25922 strain - MIC?
Result block: 0.5
